# test_details: Comparative stability in aqueous acidic medium, content by HPLC
# Assay type: physicochemical
# test_parameters: aqueous solution, phosphoric acid, pH 3, pH 3,58, 0,5% aqueous solution, 53°C, read-out: Prozent-gehalt
reported_metric: remaining at 40 h (%)

# compound, units, value_reported
data = [
    ("COc1ccc(CC2c3cc(OC)c(OC)cc3CC[N+]2(C)CCC(=O)OCCCCCOC(=O)CC[N+]2(C)CCc3cc(OC)c(OC)cc3C2Cc2ccc(OC)c(OC)c2)cc1OC (stereo not shown)", "%", 87.6),
]

----------
# test_details: Comparative stability in aqueous acidic medium, content by HPLC
# Assay type: physicochemical
# test_parameters: aqueous solution, phosphoric acid, pH 4, pH 4,09, 0,5% aqueous solution, 53°C, read-out: Prozent-gehalt

# molecule, remaining at 40 h, %
records = [
    ("COc1ccc(CC2c3cc(OC)c(OC)cc3CC[N+]2(C)CCC(=O)OCCCCCOC(=O)CC[N+]2(C)CCc3cc(OC)c(OC)cc3C2Cc2ccc(OC)c(OC)c2)cc1OC (stereo not shown) [Dibezylat, reference compound]", 68.8),
]

----------
# test_details: Comparative stability in aqueous acidic medium, content by HPLC
# Format: physicochemical
# test_parameters: aqueous solution, phosphoric acid, pH 2, pH 2,75, 0,5% aqueous solution, 53°C, read-out: Prozent-gehalt
reported_metric: remaining at 40 h

# molecule, reported_metric, value_reported
data = [
    ("COc1ccc(CC2c3cc(OC)c(OC)cc3CC[N+]2(C)CCC(=O)OCCCCCOC(=O)CC[N+]2(C)CCc3cc(OC)c(OC)cc3C2Cc2ccc(OC)c(OC)c2)cc1OC (stereo not shown) [Dichlormethylat der Formel I]", "remaining at 40 h", "89.5%"),
]

----------
# test_details: Comparative stability in aqueous acidic medium, content by HPLC
# Type: physicochemical
# test_parameters: aqueous solution, phosphoric acid, pH 2, pH 2,46, 0,5% aqueous solution, 53°C, read-out: Prozent-gehalt

# compound, remaining at 40 h
measured = [
    ("COc1ccc(CC2c3cc(OC)c(OC)cc3CC[N+]2(C)CCC(=O)OCCCCCOC(=O)CC[N+]2(C)CCc3cc(OC)c(OC)cc3C2Cc2ccc(OC)c(OC)c2)cc1OC (stereo not shown) [Dichlormethylat der Formel I]", "88.1%"),
]

----------
# test_details: Comparative stability in aqueous acidic medium, content by HPLC
# Format: physicochemical
# test_parameters: aqueous solution, phosphoric acid, pH 3, pH 3,27, 0,5% aqueous solution, 53°C, read-out: Prozent-gehalt
# Protocol: […] Die Prüfung wurde bei unterschiedlichen pH-Werten in dem angegebenen Intervall durch Behandlung der wässrigen Lösungen des Dichlormethylats der Formel I und des Bezylats bei einer Temperatur von 53°C während 40 Stunden durchgeführt. Chromatografische Bedingungen: Säule mit umgekehrter Phase C18, bewegliche Phase: wässrige 0,1 M Kaliumhydrogenphosphat, enthaltend Natriumoktylhydrogensulfat (1 g/I) und Azetonitril in einem Verhältnis 1:1. Durchlaßgeschwindigkeit 1,5 ml/Min. […]

# compound, units, remaining at 40 h
measured = [
    ("COc1ccc(CC2c3cc(OC)c(OC)cc3CC[N+]2(C)CCC(=O)OCCCCCOC(=O)CC[N+]2(C)CCc3cc(OC)c(OC)cc3C2Cc2ccc(OC)c(OC)c2)cc1OC (stereo not shown) [Dichlormethylat der Formel I]", "%", 91.4),
]

----------
# test_details: Comparative stability in aqueous acidic medium, content by HPLC
# Assay type: physicochemical
# test_parameters: acidic aqueous solution, pH 3, at pH 3,50, 53°C, read-out: Prozentgehalt, Maximum

# compound, remaining at 40 h
measured = [
    ("COc1ccc(CC2c3cc(OC)c(OC)cc3CC[N+]2(C)CCC(=O)OCCCCCOC(=O)CC[N+]2(C)CCc3cc(OC)c(OC)cc3C2Cc2ccc(OC)c(OC)c2)cc1OC (stereo not shown) [Dibezylat, reference compound]", "73.8%"),
]
